Molecular target: T1, FLT-1 IgG (UniProt P17948 27-758)
T1 construct: Construct only cited from Park et al. 1994; also called FLT-IgG; FLT-1 receptor-IgG chimera; not shown: IgG part of the chimera (captured by anti-human IgG Fc)
T1 sequence (P17948 27-758): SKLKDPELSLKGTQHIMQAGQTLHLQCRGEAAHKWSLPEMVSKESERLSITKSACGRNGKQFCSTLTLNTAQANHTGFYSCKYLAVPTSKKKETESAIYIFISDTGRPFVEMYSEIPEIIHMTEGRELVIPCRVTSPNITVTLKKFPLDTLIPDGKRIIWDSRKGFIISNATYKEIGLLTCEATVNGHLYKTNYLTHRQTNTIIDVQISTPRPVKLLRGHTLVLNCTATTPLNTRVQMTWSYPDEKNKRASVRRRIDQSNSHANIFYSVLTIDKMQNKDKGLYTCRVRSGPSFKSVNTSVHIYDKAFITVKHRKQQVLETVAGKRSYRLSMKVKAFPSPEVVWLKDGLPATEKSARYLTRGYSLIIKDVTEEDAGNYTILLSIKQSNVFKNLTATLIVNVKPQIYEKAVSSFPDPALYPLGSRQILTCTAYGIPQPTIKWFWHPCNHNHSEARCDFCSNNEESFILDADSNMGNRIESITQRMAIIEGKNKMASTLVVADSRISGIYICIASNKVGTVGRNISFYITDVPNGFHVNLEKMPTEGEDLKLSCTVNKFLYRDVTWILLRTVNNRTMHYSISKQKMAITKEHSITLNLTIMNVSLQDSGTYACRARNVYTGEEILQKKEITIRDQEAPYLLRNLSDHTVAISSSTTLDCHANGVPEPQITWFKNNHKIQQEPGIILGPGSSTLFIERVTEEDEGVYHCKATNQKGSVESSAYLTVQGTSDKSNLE
Assay: competition with 125I-VEGF165 for FLT-1-IgG, radioligand plate assay, no heparin
Please provide measured pIC50 for the entries that follow.
API: returns pIC50 as number; meaning -log10 of concentration in mol/L.

Name the recorded pIC50 for D41A VEGF (ligand, VEGF165 mutant from 293 cells, conditioned medium) APMAEGGGQNHHEVVKFMDVYQRSYCHPIETLVDIFQEYPAEIEYIFKPSCVPLMRCGGCCNDEGLECVPTEESNITMQIMRIKPHQGQHIGEMSFLQHNKCECRPKKDRARQENPCGPCSERRKHLFVQDPQTCKCSCKNTDSRCKARQLELNERTCRCDKPRR .
10.66

Name the recorded pIC50 for R82A, K84A, H86A VEGF (ligand, VEGF165 mutant from 293 cells, conditioned medium; also called R82A, K84A, H86 VEGF) APMAEGGGQNHHEVVKFMDVYQRSYCHPIETLVDIFQEYPDEIEYIFKPSCVPLMRCGGCCNDEGLECVPTEESNITMQIMAIAPAQGQHIGEMSFLQHNKCECRPKKDRARQENPCGPCSERRKHLFVQDPQTCKCSCKNTDSRCKARQLELNERTCRCDKPRR .
10.32

Name the recorded pIC50 for purified CHO-derived VEGF165 (ligand, Homodimer; also called VEGF (CHO cell); wildtype VEGF165 derived from CHO cells) APMAEGGGQNHHEVVKFMDVYQRSYCHPIETLVDIFQEYPDEIEYIFKPSCVPLMRCGGCCNDEGLECVPTEESNITMQIMRIKPHQGQHIGEMSFLQHNKCECRPKKDRARQENPCGPCSERRKHLFVQDPQTCKCSCKNTDSRCKARQLELNERTCRCDKPRR .
10.72

Name the recorded pIC50 for R82A VEGF (ligand, VEGF165 mutant from 293 cells, conditioned medium) APMAEGGGQNHHEVVKFMDVYQRSYCHPIETLVDIFQEYPDEIEYIFKPSCVPLMRCGGCCNDEGLECVPTEESNITMQIMAIKPHQGQHIGEMSFLQHNKCECRPKKDRARQENPCGPCSERRKHLFVQDPQTCKCSCKNTDSRCKARQLELNERTCRCDKPRR .
10.70

Name the recorded pIC50 for E5A VEGF (ligand, VEGF165 mutant from 293 cells, conditioned medium) APMAAGGGQNHHEVVKFMDVYQRSYCHPIETLVDIFQEYPDEIEYIFKPSCVPLMRCGGCCNDEGLECVPTEESNITMQIMRIKPHQGQHIGEMSFLQHNKCECRPKKDRARQENPCGPCSERRKHLFVQDPQTCKCSCKNTDSRCKARQLELNERTCRCDKPRR .
10.66

Name the recorded pIC50 for K84A VEGF (ligand, VEGF165 mutant from 293 cells, conditioned medium) APMAEGGGQNHHEVVKFMDVYQRSYCHPIETLVDIFQEYPDEIEYIFKPSCVPLMRCGGCCNDEGLECVPTEESNITMQIMRIAPHQGQHIGEMSFLQHNKCECRPKKDRARQENPCGPCSERRKHLFVQDPQTCKCSCKNTDSRCKARQLELNERTCRCDKPRR .
10.62

Name the recorded pIC50 for E42A VEGF (ligand, VEGF165 mutant from 293 cells, conditioned medium) APMAEGGGQNHHEVVKFMDVYQRSYCHPIETLVDIFQEYPDAIEYIFKPSCVPLMRCGGCCNDEGLECVPTEESNITMQIMRIKPHQGQHIGEMSFLQHNKCECRPKKDRARQENPCGPCSERRKHLFVQDPQTCKCSCKNTDSRCKARQLELNERTCRCDKPRR .
11.10

Name the recorded pIC50 for E38A VEGF (ligand, VEGF165 mutant from 293 cells, conditioned medium) APMAEGGGQNHHEVVKFMDVYQRSYCHPIETLVDIFQAYPDEIEYIFKPSCVPLMRCGGCCNDEGLECVPTEESNITMQIMRIKPHQGQHIGEMSFLQHNKCECRPKKDRARQENPCGPCSERRKHLFVQDPQTCKCSCKNTDSRCKARQLELNERTCRCDKPRR .
10.82

Name the recorded pIC50 for D109A, R110A VEGF (ligand, VEGF165 mutant from 293 cells, conditioned medium) APMAEGGGQNHHEVVKFMDVYQRSYCHPIETLVDIFQEYPDEIEYIFKPSCVPLMRCGGCCNDEGLECVPTEESNITMQIMRIKPHQGQHIGEMSFLQHNKCECRPKKAAARQENPCGPCSERRKHLFVQDPQTCKCSCKNTDSRCKARQLELNERTCRCDKPRR .
10.46

Name the recorded pIC50 for E64N, L66S VEGF (ligand, putative extra N-linked glycosylation at position 64, Neo-glycosylation mutant from 293 cells, conditioned medium) APMAEGGGQNHHEVVKFMDVYQRSYCHPIETLVDIFQEYPDEIEYIFKPSCVPLMRCGGCCNDNGSECVPTEESNITMQIMRIKPHQGQHIGEMSFLQHNKCECRPKKDRARQENPCGPCSERRKHLFVQDPQTCKCSCKNTDSRCKARQLELNERTCRCDKPRR .
9.01

Name the recorded pIC50 for H90A, E93A VEGF (ligand, VEGF165 mutant from 293 cells, conditioned medium; also called H9OA, E93A) APMAEGGGQNHHEVVKFMDVYQRSYCHPIETLVDIFQEYPDEIEYIFKPSCVPLMRCGGCCNDEGLECVPTEESNITMQIMRIKPHQGQAIGAMSFLQHNKCECRPKKDRARQENPCGPCSERRKHLFVQDPQTCKCSCKNTDSRCKARQLELNERTCRCDKPRR .
10.59

Name the recorded pIC50 for E30A VEGF (ligand, VEGF165 mutant from 293 cells, conditioned medium) APMAEGGGQNHHEVVKFMDVYQRSYCHPIATLVDIFQEYPDEIEYIFKPSCVPLMRCGGCCNDEGLECVPTEESNITMQIMRIKPHQGQHIGEMSFLQHNKCECRPKKDRARQENPCGPCSERRKHLFVQDPQTCKCSCKNTDSRCKARQLELNERTCRCDKPRR .
10.55
